These entries and their values trace back to ChEMBL document CHEMBL1131723.

tested on: Staphylococcus aureus; test: In vitro antibacterial activity against Staphylococcus aureus UBMS 90-3 sensitive; assay type: functional
MIC under 0.2 µg/mL gets 1, anything at or over 0.2 µg/mL gets 0.

Record excerpt, results attached:
[
  {
    "Compound": "CNCC(=O)Nc1cc(N(C)C)c2c(c1O)C(=O)C1=C(O)[C@]3(O)C(O)=C(C(N)=O)C(=O)[C@@H](N(C)C)C3CC1C2 (stereo not given in full)",
    "Tgt": "Staphylococcus aureus",
    "Class label": 0
  },
  {
    "Compound": "CN(C)c1cc(NC(=O)CN2CCC2)c(O)c2c1CC1CC3[C@H](N(C)C)C(=O)C(C(N)=O)=C(O)[C@@]3(O)C(=O)C1=C2O (stereo not given in full)",
    "Tgt": "Staphylococcus aureus",
    "Class label": 1
  },
  {
    "Compound": "CN(C)c1cc(NC(=O)CNC2CCCCCCC2)c(O)c2c1CC1CC3[C@H](N(C)C)C(=O)C(C(N)=O)=C(O)[C@@]3(O)C(=O)C1=C2O (stereo not given in full)",
    "Tgt": "Staphylococcus aureus",
    "Class label": 0
  },
  {
    "Compound": "CN(C)c1cc(NC(=O)CBr)c(O)c2c1CC1CC3[C@H](N(C)C)C(=O)C(C(N)=O)=C(O)[C@@]3(O)C(=O)C1=C2O (stereo not given in full)",
    "Tgt": "Staphylococcus aureus",
    "Class label": 0
  },
  {
    "Compound": "CN(C)CC(=O)Nc1cc(N(C)C)c2c(c1O)C(=O)C1=C(O)[C@]3(O)C(O)=C(C(N)=O)C(=O)[C@@H](N(C)C)C3CC1C2 (stereo not given in full)",
    "Tgt": "Staphylococcus aureus",
    "Class label": 1
  },
  {
    "Compound": "CCCCNCC(=O)Nc1cc(N(C)C)c2c(c1O)C(=O)C1=C(O)[C@]3(O)C(O)=C(C(N)=O)C(=O)[C@@H](N(C)C)C3CC1C2 (stereo not given in full)",
    "Tgt": "Staphylococcus aureus",
    "Class label": 0
  },
  {
    "Compound": "CN(C)c1cc(NC(=O)CN2CCSCC2)c(O)c2c1CC1CC3[C@H](N(C)C)C(=O)C(C(N)=O)=C(O)[C@@]3(O)C(=O)C1=C2O (stereo not given in full)",
    "Tgt": "Staphylococcus aureus",
    "Class label": 0
  },
  {
    "Compound": "CCCNCC(=O)Nc1cc(N(C)C)c2c(c1O)C(=O)C1=C(O)[C@]3(O)C(O)=C(C(N)=O)C(=O)[C@@H](N(C)C)C3CC1C2 (stereo not given in full)",
    "Tgt": "Staphylococcus aureus",
    "Class label": 0
  }
]

Q: Would you kindly verify if MIC of CN(C)c1cc(NC(=O)CN2CCOCC2)c(O)c2c1CC1CC3[C@H](N(C)C)C(=O)C(C(N)=O)=C(O)[C@@]3(O)C(=O)C1=C2O (stereo not given in full) is strictly less than 0.2 µg/mL?
Ans: 0

Q: Would you kindly verify if MIC of CN(C)c1cc(NC(=O)CN2CCCCC2)c(O)c2c1CC1CC3[C@H](N(C)C)C(=O)C(C(N)=O)=C(O)[C@@]3(O)C(=O)C1=C2O (stereo not given in full) is strictly less than 0.2 µg/mL?
Ans: 1

Q: Would you kindly verify if MIC of CN(C)c1cc(NC(=O)CNC2CC2)c(O)c2c1CC1CC3[C@H](N(C)C)C(=O)C(C(N)=O)=C(O)[C@@]3(O)C(=O)C1=C2O (stereo not given in full) is strictly less than 0.2 µg/mL?
Ans: 0

Q: Would you kindly verify if MIC of `CN(C)c1ccc(O)c2c1C[C@H]1C[C@H]3[C@H](N(C)C)C(O)=C(C(N)=O)C(=O)[C@@]3(O)C(O)=C1C2=O` is strictly less than 0.2 µg/mL?
Ans: 0

Q: Would you kindly verify if MIC of CN(C)c1cc(NC(=O)CNC2CCCC2)c(O)c2c1CC1CC3[C@H](N(C)C)C(=O)C(C(N)=O)=C(O)[C@@]3(O)C(=O)C1=C2O (stereo not given in full) is strictly less than 0.2 µg/mL?
Ans: 1

Q: Would you kindly verify if MIC of `CN(C)c1cc(NC(=O)CNC(C)(C)C)c(O)c2c1C[C@H]1C[C@H]3[C@H](N(C)C)C(O)=C(C(N)=O)C(=O)[C@@]3(O)C(O)=C1C2=O` is strictly less than 0.2 µg/mL?
Ans: 0
